These entries and their values trace back to patent US20240327534A1.

Target: T1, human BCMA protein (human, UniProt Q02223 1-54, limits assumed)
T1 sequence: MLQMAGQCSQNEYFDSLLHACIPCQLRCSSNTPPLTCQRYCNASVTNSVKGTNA
Assay: affinity to human BCMA protein, method not stated
Collected pKd values appear next to each entry.
The read-out pKd is expressed as -log10 of concentration in moles per litre.

>>> observed_result("BCMA targeting trispecific protein 02F02 (other, trispecific; also called 02F02 TriTAC; not shown: The C-terminal 6xHis tag is left out because it follows these missing domains) VHH: EVQLVESGGGLVQPGRSLTLSCAASTNIFSKSPMGWYRQAPGKQRELVAAIHGSSTLYADSVKGRFTISRDNAKNSIYLQMNSLRPEDTALYYCNKVPWGDYHPGNVYWGQGTQVTVSS")
8.17

Problem: For the binder BCMA targeting trispecific protein 01A02 (other, not shown: large carriers; small tags and cut ends, trispecific) VHH: EVQLVESGGGLVQPGRSLTLSCAASTNIFSSSPMGWYRQAPGKQRELVAAINGFSTLYADSVKGRFTISRDNAKNSIYLQMNSLRPEDTALYYCNKVPWGDYHPRNVHWGQGTQVTVSS , give its measured pKd value.
Solution: 7.67
